Target: T1, Mcl-1, Q07820
T1 chain: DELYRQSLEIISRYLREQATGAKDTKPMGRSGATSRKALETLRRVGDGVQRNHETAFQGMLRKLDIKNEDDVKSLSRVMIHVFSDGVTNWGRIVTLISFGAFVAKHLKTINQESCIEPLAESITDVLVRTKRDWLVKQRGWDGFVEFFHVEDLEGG
Experiment: peptide SPOT array, c-Myc-tagged receptor at 1 uM or 100 nM, anti-c-Myc-Cy3
measured property: SPOT signal as a fraction of Bim BH3's signal on the same receptor and array
Give your answer as a number; write no unit.

{"columns": ["binder", "measured value"],
 "data": [
  ["ITVVGDVGGRIAIIVDDIIDDVESFV [PRPSAP1]", 0.02],
  ["VHKHSRLAEVLQLGSDILPQYKQEAP [KCNH1]", 0.21],
  ["FSKREKLVEILRNIGDERTMVFVETK [DDX4]", 0.35],
  ["RDPQGWVAGNLSARLDGAAGFTLPGF [MST1R]", 0.02]
]}

For NGGLLEFHKSDQEIGDKNDHWFDIDP [DZIP3] the binder record lists SPOT signal as a fraction of Bim BH3's signal on the same receptor and array as 0.04

For VILADPDGHEDCFVGDEAFRELSKMD [GLOD4] the binder record lists SPOT signal as a fraction of Bim BH3's signal on the same receptor and array as 0.01

For DTIYQGFAECLIRLGDSMGRGGELET [NRN1L] the binder record lists SPOT signal as a fraction of Bim BH3's signal on the same receptor and array as 0.17

For KNIAGALAFWDANASELLNFIKQDRD [MLLT4] the binder record lists SPOT signal as a fraction of Bim BH3's signal on the same receptor and array as 0.02

For YNLKSPAVKRLMKEAAELKDPTDHYH [UBE2J1] the binder record lists SPOT signal as a fraction of Bim BH3's signal on the same receptor and array as 0.05

For KIETTPESRYDAQIGDSVSLTCSTTG [VCAM1] the binder record lists SPOT signal as a fraction of Bim BH3's signal on the same receptor and array as 0.03

For GKPETCTGQDLADLLDRLRDWFQLLH [SPOCK2] the binder record lists SPOT signal as a fraction of Bim BH3's signal on the same receptor and array as 0.01

For HGTSSRIGSSMKSVGEVMAIGRTFEE [CPS1] the binder record lists SPOT signal as a fraction of Bim BH3's signal on the same receptor and array as 0.02

For ELDEDDLEAEDDALGDELLADEDSSY [CHMP5] the binder record lists SPOT signal as a fraction of Bim BH3's signal on the same receptor and array as 0.03

For PASTDAVSALLEQTAVELEKRQEGRS [WWC1] the binder record lists SPOT signal as a fraction of Bim BH3's signal on the same receptor and array as 0.01
